- target-of-assay: F876L mutant Androgen Receptor (AR-F876L) (Homo sapiens, UniProt P10275, F877L)
- Construct: expressed in transfected cells; host or cells: LNCaP (LNCaP F876L)
- Sequence (P10275 whole entry F877L): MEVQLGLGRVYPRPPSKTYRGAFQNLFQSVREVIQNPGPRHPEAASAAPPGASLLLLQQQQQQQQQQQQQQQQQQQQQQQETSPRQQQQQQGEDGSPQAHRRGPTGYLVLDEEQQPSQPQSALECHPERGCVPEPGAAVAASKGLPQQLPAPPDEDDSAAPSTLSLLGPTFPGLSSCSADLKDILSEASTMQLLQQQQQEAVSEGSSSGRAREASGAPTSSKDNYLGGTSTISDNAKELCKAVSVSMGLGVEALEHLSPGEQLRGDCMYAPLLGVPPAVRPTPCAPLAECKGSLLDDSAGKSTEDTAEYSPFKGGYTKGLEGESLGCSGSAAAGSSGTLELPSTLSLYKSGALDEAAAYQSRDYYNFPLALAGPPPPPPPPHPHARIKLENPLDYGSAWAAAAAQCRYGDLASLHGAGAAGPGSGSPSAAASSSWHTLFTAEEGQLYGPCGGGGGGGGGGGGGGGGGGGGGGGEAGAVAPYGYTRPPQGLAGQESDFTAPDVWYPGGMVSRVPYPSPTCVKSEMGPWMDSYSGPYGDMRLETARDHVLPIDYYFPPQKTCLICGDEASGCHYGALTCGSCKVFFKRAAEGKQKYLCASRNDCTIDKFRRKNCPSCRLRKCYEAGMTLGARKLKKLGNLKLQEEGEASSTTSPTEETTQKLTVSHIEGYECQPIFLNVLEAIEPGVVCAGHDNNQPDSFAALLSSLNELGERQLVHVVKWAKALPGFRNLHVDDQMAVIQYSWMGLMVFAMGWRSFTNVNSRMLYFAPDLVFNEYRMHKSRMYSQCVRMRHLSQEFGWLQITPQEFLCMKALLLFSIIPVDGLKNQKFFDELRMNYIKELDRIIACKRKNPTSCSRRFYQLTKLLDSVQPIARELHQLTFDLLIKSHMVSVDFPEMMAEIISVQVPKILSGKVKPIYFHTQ
- assay-overview: LNCaP-AR-F876L AG reporter assay (ARE firefly luciferase, agonist mode)
- Format: cell-based
- conditions: read-out: LNCaP-AR-F876L AG MAX % Stim
measured-attribute: Emax
The answer should read as a number with its unit following.

1) CC(C)CCNC(=O)c1ccc(N2C(=S)N(c3cnc(C#N)c(C(F)(F)F)c3)C(=O)C23CCC3)cc1F [Cpd 27]; 0.2%
2) N#Cc1ncc(N2C(=O)C3(CCC3)N(c3cccc4ccccc34)C2=S)cc1C(F)(F)F [Cpd 34]; 0.2%
3) Cc1cc(N2C(=O)C3(CCC3)N(c3ccc(C4CCOCC4)cc3)C2=S)cnc1C#N [Cpd 101]; 1.7%
4) Cc1ccc(-c2ccc(N3C(=S)N(c4cnc(C#N)c(C)c4)C(=O)C34CCC4)cc2)o1 [Cpd 50]; 0.2%
5) CN1CCC(Oc2ccc(N3C(=S)N(c4cnc(C#N)c(C(F)(F)F)c4)C(=O)C3(C)C)cc2)CC1 [Cpd 19]; 0.2%
6) N#Cc1ncc(N2C(=O)C3(CCC3)N(c3cccc(OC(F)(F)F)c3)C2=S)cc1C(F)(F)F [Cpd 97]; 1.6%
7) N#Cc1ncc(N2C(=O)C3(CCC3)N(c3ccccc3)C2=S)cc1C(F)(F)F [Cpd 70]; 0.9%
8) N#Cc1ncc(N2C(=O)C3(CCC3)N(c3ccc(C(=O)NCc4ccccc4)c(F)c3)C2=S)cc1C(F)(F)F [Cpd 36]; 0.3%
9) Cc1cc(N2C(=O)C3(CCC3)N(c3ccc(C(=O)Nc4nccs4)c(F)c3)C2=S)cnc1C#N [Cpd 63]; 0.3%
10) Cc1cncc(-c2ccc(N3C(=S)N(c4cnc(C#N)c(C)c4)C(=O)C34CCC4)cc2)c1 [Cpd 114]; 3.3%

I'm hoping you can list Emax for every compound here, please.
1. Cc1ccc(N2C(=S)N(c3cnc(C#N)c(C)c3)C(=O)C23CCC3)cc1 [Cpd 29]
2. COCCNC(=O)c1ccc(N2C(=S)N(c3cnc(C#N)c(C(F)(F)F)c3)C(=O)C23CCC3)cc1F [Cpd 46]
3. CCCNC(=O)c1ccc(N2C(=S)N(c3cnc(C#N)c(C(F)(F)F)c3)C(=O)C23CCC3)cc1F [Cpd 68]
4. Cc1ccc(NC(=O)c2ccc(N3C(=S)N(c4cnc(C#N)c(C)c4)C(=O)C34CCC4)cc2F)cn1 [Cpd 75]

["0.3%", "0.2%", "0.9%", "0.8%"]

Hi, could you look up Emax for each item in my list?
1. N#Cc1ncc(N2C(=O)C3(CCC3)N(c3ccc(C(=O)NCc4cccnc4)c(F)c3)C2=S)cc1C(F)(F)F [Cpd 67]
2. N#Cc1ncc(N2C(=O)C3(CCC3)N(c3ccc(Oc4ccccc4)cc3)C2=S)cc1C(F)(F)F [Cpd 99]

["0.8%", "1.6%"]
